test system: MCF7; assay: Antiproliferative activity against human MCF7 cells after 72 hrs by SRB assay; assay type: functional, cell-based; conditions: Homo sapiens, MCF7, 72 h
Binarize IC50 at 9 µM; below is YES, at or above is NO.

## Input Is the reported IC50 for Cc1ccc(S(=O)(=O)Nc2cc(SCC(=O)N[C@@H](CC(C)C)B(O)O)c(O)c3ccccc23)cc1 strictly below 9 µM?
## Output NO

## Input Is the reported IC50 for CC(C)C[C@H](NC(=O)CSc1cc(NS(=O)(=O)c2ccc(Cl)cc2)c2ccccc2c1O)B(O)O strictly below 9 µM?
## Output NO

## Input Is the reported IC50 for CC(=O)Nc1ccc(S(=O)(=O)Nc2cc(SCC(=O)N[C@@H](CC(C)C)B(O)O)c(O)c3ccccc23)cc1 strictly below 9 µM?
## Output YES

## Input Is the reported IC50 for CC(C)C[C@H](NC(=O)CCSc1cc(NS(=O)(=O)c2cccs2)c2ccccc2c1O)B(O)O strictly below 9 µM?
## Output YES

## Input Is the reported IC50 for CC(C)C[C@H](NC(=O)CSc1cc(NS(=O)(=O)c2cccs2)c2ccccc2c1O)B(O)O strictly below 9 µM?
## Output NO

## Input Is the reported IC50 for CC(=O)Nc1ccc(S(=O)(=O)Nc2cc(SCCC(=O)N[C@@H](CC(C)C)B(O)O)c(O)c3ccccc23)cc1 strictly below 9 µM?
## Output YES

## Input Is the reported IC50 for CC(C)C[C@H](NC(=O)C(C)Sc1cc(NS(=O)(=O)c2cccs2)c2ccccc2c1O)B(O)O (stereo partly drawn) strictly below 9 µM?
## Output NO
